Experiment Summary: Plasma concentration in cynomolgus monkey at 5 mg/kg, po measured after 1st repeated dose measured after 1 hr by HPLC
Type: ADME, organism-based, Macaca fascicularis
Set-up: dose 5 mg/kg, route oral
Readout Kind: concentration at 1 h (ng/mL)
Respond numerically; units are ng/mL and should not be typed.

Check the records and state concentration at 1 h for CCC(CC)(NC(=O)c1c(C)nn2c1N[C@@H](c1ccccc1)CC2(C)C)c1ccc(C)cc1.Cl
32.5

---

Tested on: Rattus norvegicus
Experiment Summary: Increase in plasma PTH (1 to 34) level in 12 week old Crl:CD(SD) rat at 2.5 mg/kg, po after 2 hr by ELISA
Type: functional
Readout Kind: Activity (pg/mL)
Respond numerically; units are pg/mL and should not be typed.

Sample records with Activity:
Check the records and state Activity for CCc1ccc(C(CC)(CC)NC(=O)c2c(C)nn3c2N[C@@H](c2ccccc2)CC3(C)C)cc1.Cl
42

Check the records and state Activity for CCOc1ccc(C(CC)(CC)NC(=O)c2c(C)nn3c2N[C@@H](c2ccccc2)CC3(C)C)cc1.Cl
24.4

Check the records and state Activity for CCC(CC)(NC(=O)c1c(C)nn2c1N[C@@H](c1ccccc1)CC2(C)C)c1ccc(OC)c(F)c1.Cl
16.8

Shifting focus to the compound that follows.
Check the records and state Activity for CCC(CC)(NC(=O)c1c(C)nn2c1N[C@@H](c1ccccc1)CC2(C)C)c1ccc(Cl)c(OC)c1.Cl
13.7

FYI, the data here is from ChEMBL document CHEMBL1687937.
